Target desc: SRC (Homo sapiens)
Sequence (P12931 whole entry): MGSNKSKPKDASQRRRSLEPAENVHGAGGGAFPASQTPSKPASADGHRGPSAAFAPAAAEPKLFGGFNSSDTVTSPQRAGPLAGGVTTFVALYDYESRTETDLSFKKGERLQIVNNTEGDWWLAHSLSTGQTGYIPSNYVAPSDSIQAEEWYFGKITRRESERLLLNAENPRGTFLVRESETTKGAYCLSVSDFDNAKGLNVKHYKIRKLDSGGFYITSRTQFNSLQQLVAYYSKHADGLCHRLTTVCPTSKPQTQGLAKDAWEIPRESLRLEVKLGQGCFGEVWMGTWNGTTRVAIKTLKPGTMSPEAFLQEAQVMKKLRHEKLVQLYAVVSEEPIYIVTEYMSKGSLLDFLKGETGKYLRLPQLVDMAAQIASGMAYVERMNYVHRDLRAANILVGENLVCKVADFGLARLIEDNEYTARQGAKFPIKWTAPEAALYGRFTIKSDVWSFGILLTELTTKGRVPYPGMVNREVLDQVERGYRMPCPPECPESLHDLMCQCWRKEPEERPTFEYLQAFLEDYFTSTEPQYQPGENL
Protocol description: Z'-LYTE kinase assay
Assay type: biochemical
Assay setup: IC50 SRC, Table 1
Experimental readout: pIC50
Quick note: pIC50 means taking -log10 of the concentration in moles per liter.

Entry under review: CC(C)(C)c1cc(NC(=O)Nc2ccc(Oc3ccnc4[nH]c(=O)cnc34)cc2F)n(-c2ccccc2)n1 . Reported pIC50?
7.52

###

Collected pIC50 values appear next to each entry.
Target desc: CRAF (Homo sapiens, UniProt P04049, Y340D/Y341D)
Sequence (P04049 306-648 Y340D/Y341D limits assumed): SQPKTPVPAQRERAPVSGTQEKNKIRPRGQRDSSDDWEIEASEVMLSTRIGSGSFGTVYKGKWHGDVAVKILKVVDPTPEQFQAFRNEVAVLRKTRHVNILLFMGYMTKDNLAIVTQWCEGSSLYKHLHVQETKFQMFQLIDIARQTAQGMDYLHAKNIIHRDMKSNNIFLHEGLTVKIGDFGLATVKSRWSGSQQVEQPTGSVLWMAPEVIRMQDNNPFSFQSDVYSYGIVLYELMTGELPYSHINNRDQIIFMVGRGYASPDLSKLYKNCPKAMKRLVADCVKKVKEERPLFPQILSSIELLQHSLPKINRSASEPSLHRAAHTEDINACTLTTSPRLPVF
Protocol description: Z'-LYTE kinase assay
Assay setup: Table 1
Quick note: pIC50 means taking -log10 of the concentration in moles per liter.

- Compound: "CC(C)(C)c1cc(NC(=O)Nc2ccc(Oc3ccnc4[nH]c(=O)cnc34)cc2F)n(-c2ccccc2)n1 [CCT196969]"
  Target desc: "CRAF (Homo sapiens, UniProt P04049, Y340D/Y341D)"
  pIC50: 8.00

Notebook: pull reported pIC50 for CRAF (Homo sapiens, UniProt P04049, Y340D/Y341D), entry CSc1cc(Oc2ccnc3[nH]c(=O)cnc23)ccc1NC(=O)Nc1cc(C(C)(C)C)nn1-c1ccccc1 [CCT241161]
8.22

###

These molecules were tested on LCK (Homo sapiens); pIC50 is the recorded read-out.
Sequence (P06239 whole entry): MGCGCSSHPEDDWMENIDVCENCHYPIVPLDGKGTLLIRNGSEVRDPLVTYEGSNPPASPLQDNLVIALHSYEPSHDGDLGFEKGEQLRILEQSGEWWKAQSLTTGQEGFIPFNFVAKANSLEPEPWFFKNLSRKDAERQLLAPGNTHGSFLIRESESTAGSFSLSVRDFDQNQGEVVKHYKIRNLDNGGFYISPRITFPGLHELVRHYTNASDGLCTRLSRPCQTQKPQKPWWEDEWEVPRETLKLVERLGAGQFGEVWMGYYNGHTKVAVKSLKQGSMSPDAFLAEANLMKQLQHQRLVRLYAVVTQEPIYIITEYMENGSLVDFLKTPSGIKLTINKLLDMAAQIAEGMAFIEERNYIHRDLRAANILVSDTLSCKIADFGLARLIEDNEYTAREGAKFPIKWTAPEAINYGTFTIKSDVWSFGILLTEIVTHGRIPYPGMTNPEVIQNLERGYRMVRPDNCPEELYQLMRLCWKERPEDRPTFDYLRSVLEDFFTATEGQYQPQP
Quick note: pIC50 means taking -log10 of the concentration in moles per liter.

- Item smiles: "CSc1cc(Oc2ccnc3[nH]c(=O)cnc23)ccc1NC(=O)Nc1cc(C(C)(C)C)nn1-c1ccccc1"
  Test result: 8.52

We next turn to a different molecule, shown below.
Entry under review: CC(C)(C)c1cc(NC(=O)Nc2ccc(Oc3ccnc4[nH]c(=O)cnc34)cc2F)n(-c2ccccc2)n1 . Reported pIC50?
7.85

###

These molecules were tested on MEK1 (Homo sapiens); IC50 is the recorded read-out.
Sequence (Q02750 whole entry): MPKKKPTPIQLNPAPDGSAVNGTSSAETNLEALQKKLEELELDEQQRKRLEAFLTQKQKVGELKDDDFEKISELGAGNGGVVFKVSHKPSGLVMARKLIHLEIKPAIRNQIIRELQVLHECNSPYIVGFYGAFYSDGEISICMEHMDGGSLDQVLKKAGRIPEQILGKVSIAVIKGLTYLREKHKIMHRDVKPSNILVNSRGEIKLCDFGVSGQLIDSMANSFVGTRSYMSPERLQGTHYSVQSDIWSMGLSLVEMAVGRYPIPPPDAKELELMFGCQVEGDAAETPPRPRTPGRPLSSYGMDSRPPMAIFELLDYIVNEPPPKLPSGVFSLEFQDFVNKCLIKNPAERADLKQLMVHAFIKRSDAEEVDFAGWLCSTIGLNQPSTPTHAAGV

- Molecule: "CSc1cc(Oc2ccnc3[nH]c(=O)cnc23)ccc1NC(=O)Nc1cc(C(C)(C)C)nn1-c1ccccc1 [CCT241161]"
  IC50: "> 10 µM"

We next turn to a different molecule, shown below.
Entry under review: CC(C)(C)c1cc(NC(=O)Nc2ccc(Oc3ccnc4[nH]c(=O)cnc34)cc2F)n(-c2ccccc2)n1 [CCT196969] . Reported IC50?
> 10 µM

###

Target desc: BRAF (Homo sapiens, UniProt P15056)
Sequence (P15056 whole entry): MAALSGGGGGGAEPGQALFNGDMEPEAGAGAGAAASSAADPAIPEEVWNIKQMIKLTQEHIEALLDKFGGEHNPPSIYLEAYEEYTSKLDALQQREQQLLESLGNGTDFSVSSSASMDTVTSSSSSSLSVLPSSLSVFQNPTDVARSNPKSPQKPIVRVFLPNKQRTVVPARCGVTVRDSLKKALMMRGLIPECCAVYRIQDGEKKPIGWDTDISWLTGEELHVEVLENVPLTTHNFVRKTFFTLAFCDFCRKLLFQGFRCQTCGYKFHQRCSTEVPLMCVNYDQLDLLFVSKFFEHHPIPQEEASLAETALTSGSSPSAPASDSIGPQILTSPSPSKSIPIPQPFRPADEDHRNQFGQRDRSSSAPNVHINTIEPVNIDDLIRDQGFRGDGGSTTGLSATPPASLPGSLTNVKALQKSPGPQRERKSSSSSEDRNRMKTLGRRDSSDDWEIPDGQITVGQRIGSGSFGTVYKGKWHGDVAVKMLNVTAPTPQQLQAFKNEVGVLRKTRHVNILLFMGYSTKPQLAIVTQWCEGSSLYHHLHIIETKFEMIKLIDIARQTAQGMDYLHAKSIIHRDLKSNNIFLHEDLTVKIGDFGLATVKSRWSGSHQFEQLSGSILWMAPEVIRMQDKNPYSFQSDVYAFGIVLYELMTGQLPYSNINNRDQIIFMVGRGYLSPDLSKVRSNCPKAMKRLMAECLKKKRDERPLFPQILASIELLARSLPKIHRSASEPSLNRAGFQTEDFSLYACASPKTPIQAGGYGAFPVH
Protocol description: Z'-LYTE kinase assay
Format: biochemical
Experimental readout: pIC50
Quick note: pIC50 means taking -log10 of the concentration in moles per liter.

Entry under review: CSc1cc(Oc2ccnc3[nH]c(=O)cnc23)ccc1NC(=O)Nc1cc(C(C)(C)C)nn1-c1ccccc1 . Reported pIC50?
6.60

###

Protocol description: Pharmacokinetic studies, plasma, oral and intravenous dosing
Type: in vivo, Balb/c mice
Assay setup: Balb/c, mouse, plasma, po, 10 mg/kg
Experimental readout: bioavailability

- Compound: "CSc1cc(Oc2ccnc3[nH]c(=O)cnc23)ccc1NC(=O)Nc1cc(C(C)(C)C)nn1-c1ccccc1 [CCT241161]"
  Experimental readout: "bioavailability"
  Test result: "~55%"

We next turn to a different compound, shown below.
Entry under review: CC(C)(C)c1cc(NC(=O)Nc2ccc(Oc3ccnc4[nH]c(=O)cnc34)cc2F)n(-c2ccccc2)n1 [CCT196969] . Reported bioavailability?
~55%

###

Collected pIC50 values appear next to each entry.
Target desc: COT (Homo sapiens)
Sequence (P41279 whole entry): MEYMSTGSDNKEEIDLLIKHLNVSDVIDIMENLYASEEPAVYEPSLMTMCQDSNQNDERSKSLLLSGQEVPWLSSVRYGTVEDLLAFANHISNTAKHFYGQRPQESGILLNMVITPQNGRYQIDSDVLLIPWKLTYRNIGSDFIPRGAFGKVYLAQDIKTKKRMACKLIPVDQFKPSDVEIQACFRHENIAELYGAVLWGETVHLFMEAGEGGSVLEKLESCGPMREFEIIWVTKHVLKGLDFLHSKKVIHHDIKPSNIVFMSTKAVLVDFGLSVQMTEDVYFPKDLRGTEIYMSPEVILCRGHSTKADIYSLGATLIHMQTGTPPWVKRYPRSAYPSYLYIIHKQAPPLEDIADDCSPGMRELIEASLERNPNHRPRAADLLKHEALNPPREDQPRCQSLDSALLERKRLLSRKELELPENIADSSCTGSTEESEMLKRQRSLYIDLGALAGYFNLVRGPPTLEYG
pIC50: −log10 of the molar value.

- Item smiles: "CSc1cc(Oc2ccnc3[nH]c(=O)cnc23)ccc1NC(=O)Nc1cc(C(C)(C)C)nn1-c1ccccc1"
  Experimental readout: "pIC50"
  Test result: "< 5.00"

We next turn to a different compound, shown below.
Notebook: pull reported pIC50 for COT (Homo sapiens), entry CC(C)(C)c1cc(NC(=O)Nc2ccc(Oc3ccnc4[nH]c(=O)cnc34)cc2F)n(-c2ccccc2)n1
< 5.00

Reference for the values: paper PMC4297292
